Values from patent US20240209076A1

- Measured target: T1, human IL-6 (human, UniProt P05231 30-212)
- T1 construct: IL-6 flowed over captured antibodies
- T1 sequence (P05231 30-212 limits assumed): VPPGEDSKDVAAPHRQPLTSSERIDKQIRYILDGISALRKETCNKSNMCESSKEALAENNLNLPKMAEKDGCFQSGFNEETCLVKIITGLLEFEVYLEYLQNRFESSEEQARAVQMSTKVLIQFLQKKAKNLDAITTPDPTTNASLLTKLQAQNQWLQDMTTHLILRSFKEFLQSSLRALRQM
- Procedure details: SPR Biacore, purified Ab on Protein A chip, 37 C
# koff annotations
Write the answer as a number in s⁻¹, unit excluded.

// below: answered binders
anti-IL-6 antibody, heavy chain T63E, G66D / light chain M32L, M50D, N52S, M88Q (antibody, IgG1, V domains shown, Full IgG1 (Expi293); VL = variant III) VH: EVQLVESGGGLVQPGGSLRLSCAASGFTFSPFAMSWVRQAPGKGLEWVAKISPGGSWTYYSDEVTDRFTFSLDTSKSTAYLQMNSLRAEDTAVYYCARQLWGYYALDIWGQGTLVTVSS VL: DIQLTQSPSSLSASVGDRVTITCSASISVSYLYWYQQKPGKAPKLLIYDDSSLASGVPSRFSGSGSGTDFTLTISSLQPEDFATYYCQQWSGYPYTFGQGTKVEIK | 0.000327
anti-IL-6 antibody, heavy chain S35H, G66D / light chain M32L, M50D, N52S, M88Q (antibody, IgG1, V domains shown, Full IgG1 (Expi293); VL = variant III) VH: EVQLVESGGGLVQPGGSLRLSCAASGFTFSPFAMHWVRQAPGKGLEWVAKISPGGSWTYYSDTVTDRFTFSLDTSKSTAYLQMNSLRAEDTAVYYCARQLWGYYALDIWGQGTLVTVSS VL: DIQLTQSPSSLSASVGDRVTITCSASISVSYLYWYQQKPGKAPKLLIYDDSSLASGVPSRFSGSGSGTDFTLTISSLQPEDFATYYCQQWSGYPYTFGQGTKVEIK | 0.000254
anti-IL-6 antibody, heavy chain T65Q, G66D / light chain M32L, M50D, N52S, M88Q (antibody, IgG1, V domains shown, Full IgG1 (Expi293); VL = variant III) VH: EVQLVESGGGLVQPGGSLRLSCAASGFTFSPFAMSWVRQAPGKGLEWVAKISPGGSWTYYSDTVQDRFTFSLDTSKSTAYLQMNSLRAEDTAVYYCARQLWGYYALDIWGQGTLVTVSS VL: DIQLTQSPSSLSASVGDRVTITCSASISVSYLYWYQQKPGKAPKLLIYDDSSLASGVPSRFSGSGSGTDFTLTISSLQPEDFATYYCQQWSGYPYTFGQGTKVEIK | 0.00038
anti-IL-6 antibody, heavy chain WT / light chain M32L, M50D, N52S, M88Q (antibody, IgG1, V domains shown, Full IgG1 (Expi293); VL = variant III) VH: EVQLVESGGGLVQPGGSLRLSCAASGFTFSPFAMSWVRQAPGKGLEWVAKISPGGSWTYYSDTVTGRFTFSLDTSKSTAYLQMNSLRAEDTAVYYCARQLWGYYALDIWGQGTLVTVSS VL: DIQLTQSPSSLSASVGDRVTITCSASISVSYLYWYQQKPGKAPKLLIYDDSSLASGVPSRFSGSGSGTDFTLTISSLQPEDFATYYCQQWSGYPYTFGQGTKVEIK | 0.000319

Prompt: Query koff for anti-IL-6 antibody, heavy chain G66D / light chain M32L, M50D, N52S, M88Q (antibody, IgG1, V domains shown, Full IgG1 (Expi293); VL = variant III) VH: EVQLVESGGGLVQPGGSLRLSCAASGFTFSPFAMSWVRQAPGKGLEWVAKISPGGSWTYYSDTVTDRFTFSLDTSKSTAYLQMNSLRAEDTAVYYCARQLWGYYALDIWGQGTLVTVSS VL: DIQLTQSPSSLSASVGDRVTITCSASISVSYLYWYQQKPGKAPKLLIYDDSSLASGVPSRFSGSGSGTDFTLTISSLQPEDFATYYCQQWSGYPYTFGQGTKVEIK
Response: 0.000412

Prompt: Query koff for anti-IL-6 antibody, heavy chain T63Q, G66D / light chain M32L, M50D, N52S, M88Q (antibody, IgG1, V domains shown, Full IgG1 (Expi293); VL = variant III) VH: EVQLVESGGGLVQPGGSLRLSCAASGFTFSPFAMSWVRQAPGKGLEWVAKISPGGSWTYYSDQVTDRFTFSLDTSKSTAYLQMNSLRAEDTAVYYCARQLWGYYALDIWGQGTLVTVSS VL: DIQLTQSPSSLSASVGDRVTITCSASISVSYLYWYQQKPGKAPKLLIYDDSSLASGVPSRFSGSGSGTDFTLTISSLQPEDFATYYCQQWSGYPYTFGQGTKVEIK
Response: 0.000341

Prompt: Query koff for anti-IL-6 antibody, heavy chain T63K, G66D / light chain M32L, M50D, N52S, M88Q (antibody, IgG1, V domains shown, Full IgG1 (Expi293); VL = variant III) VH: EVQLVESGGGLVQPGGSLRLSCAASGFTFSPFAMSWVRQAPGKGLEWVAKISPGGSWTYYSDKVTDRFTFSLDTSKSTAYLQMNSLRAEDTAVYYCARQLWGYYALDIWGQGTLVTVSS VL: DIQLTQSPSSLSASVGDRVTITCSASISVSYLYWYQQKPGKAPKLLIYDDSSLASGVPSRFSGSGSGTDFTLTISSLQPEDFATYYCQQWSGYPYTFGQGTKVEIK
Response: 0.000401
